# TGT: UniProtKB P08173
# PROCEDURE TEXT: Human M4 PAM PERK assay (CHO cells, TR-FRET, with EC20 acetylcholine)
pEC50: −log10 of the molar value.
We begin with a simple list: items and their reported pEC50.

Look over these answered cases.
1. Cc1c2c(n(C)c(=O)c1Cl)CN(C(=O)CC1CN(c3ccccc3)C1)C2 :: > 7.30
2. COc1cncc(N2CC(CC(=O)N3Cc4c(C)cc(=O)n(C)c4C3)C2)c1 :: > 7.30
3. Cc1cc(=O)n(C)c2c1CN(C(=O)CC1CN(c3nc(C(F)(F)F)ns3)C1)C2 :: 6.00 to 6.70

The record that follows has no pEC50 shown yet.
Assign pEC50 to the following record: `COc1cc(N2CC(CC(=O)N3Cc4c(C)c(C)c(=O)n(C)c4C3)C2)cc(C(F)(F)F)n1`
6.00 to 6.70

---

EC50 listing for selected molecules.
# TGT: hM4 receptors (Homo sapiens, UniProt P08173)
# PROCEDURE TEXT: Human M4 PAM PERK assay (CHO cells, TR-FRET, with EC20 acetylcholine)

1. Cc1cc(=O)n(C)c2c1CN(C(=O)CC1CN(c3ccc(C(F)(F)F)cc3)C1)C2 [Compound I-5] :: < 50 nM
2. Cc1c2c(n(C)c(=O)c1C)CN(C(=O)CC1CN(c3ccc(CC(C)(C)O)c(F)c3)C1)C2 [Compound I-57] :: < 50 nM
3. Cc1c2c(n(C)c(=O)c1Cl)CN(C(=O)CC1CN(c3cccc(C(F)(F)F)c3)C1)C2 [Compound I-73] :: < 50 nM
4. Cc1c2c(n(C)c(=O)c1Cl)CN(C(=O)CC1CN(c3cnccn3)C1)C2 [Compound I-72] :: < 50 nM
5. Cc1cc(=O)n(C)c2c1CN(C(=O)CC1CN(c3cnc(C(F)(F)F)cn3)C1)C2 [Compound I-26] :: 200 to 1000 nM
6. Cc1c2c(n(C)c(=O)c1C)CN(C(=O)CC1CN(c3nc(C(F)(F)F)c(C4CC4)s3)C1)C2 [Compound I-64] :: 50 to 200 nM
7. Cc1cc(=O)n(C)c2c1CN(C(=O)CC1CN(c3ccc(F)cc3)C1)C2 [Compound I-11] :: 200 to 1000 nM

Look up EC50 of Cc1cc(=O)n(C)c2c1CN(C(=O)CC1CN(c3cccc(C(F)(F)F)c3)C1)C2 [Compound I-13] and report it.
200 to 1000 nM

---

# TGT: hM4 receptors (Homo sapiens, UniProt P08173)
# Construct: expressed in transfected cells; host or cells: CHO cells
# PROCEDURE TEXT: Human M4 PAM PERK assay (CHO cells, TR-FRET, with EC20 acetylcholine)
# Assay type: cell-based
pEC50: −log10 of the molar value.
Below: a set of entries, each annotated with reported pEC50.

Sample records with pEC50:
1) COc1c2c(n(C)c(=O)c1C)CN(C(=O)CC1CN(c3ccnc(C(F)(F)F)c3)C1)C2 :: > 7.30
2) Cc1c2c(n(C)c(=O)c1C)CN(C(=O)CC1CN(c3ccc(C(C)(C)O)c(F)c3)C1)C2 :: > 7.30

Consider now this further molecule.
Report pEC50 on hM4 receptors (Homo sapiens, UniProt P08173) for this entry: `Cc1c2c(n(CC(F)(F)F)c(=O)c1Cl)CN(C(=O)CC1CN(c3ccncn3)C1)C2`
6.70 to 7.30

---

# TGT: rM4 receptors (Rattus norvegicus)
# Construct: expressed in transfected cells; host or cells: CHO cells
# Sequence (P08485 whole entry): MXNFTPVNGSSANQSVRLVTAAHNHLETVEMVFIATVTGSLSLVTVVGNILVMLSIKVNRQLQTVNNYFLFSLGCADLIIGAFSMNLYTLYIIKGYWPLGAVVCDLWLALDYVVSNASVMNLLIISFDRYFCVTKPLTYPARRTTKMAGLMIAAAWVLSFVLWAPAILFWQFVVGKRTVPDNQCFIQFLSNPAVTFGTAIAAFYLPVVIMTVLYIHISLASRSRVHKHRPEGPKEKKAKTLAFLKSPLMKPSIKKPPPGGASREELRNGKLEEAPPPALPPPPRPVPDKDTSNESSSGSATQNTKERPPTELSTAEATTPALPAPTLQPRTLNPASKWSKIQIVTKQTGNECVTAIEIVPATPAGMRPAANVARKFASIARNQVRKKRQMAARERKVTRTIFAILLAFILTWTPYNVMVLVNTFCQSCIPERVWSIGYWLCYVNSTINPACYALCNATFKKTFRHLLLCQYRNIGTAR
# PROCEDURE TEXT: Rat M4 PAM PERK assay (CHO cells, TR-FRET, with EC20 acetylcholine)
# Type: cell-based
pEC50: −log10 of the molar value.
READOUT: pEC50

Completed entries (count: 2):
1. Cn1c2c(c(C(F)(F)F)cc1=O)CN(C(=O)CC1CN(c3cccnc3)C1)C2 :: 6.00 to 6.70
2. Cc1c2c(n(C)c(=O)c1C(F)(F)F)CN(C(=O)CC1CN(c3cccnc3)C1)C2 :: < 6.00

Give a short answer stating reported pEC50 for `Cc1c2c(n(C)c(=O)c1F)CN(C(=O)CC1CN(c3cccc(F)c3F)C1)C2` .
6.70 to 7.30

Consider the compound `Cc1cc(=O)n(C)c2c1CN(C(=O)CC1CN(c3ccc4c(c3)COC4)C1)C2` and give its recorded pEC50.
6.00 to 6.70

Read the entry `Cc1cc(=O)n(CC2CC2)c2c1CN(C(=O)CC1CN(c3ccc(C(F)(F)F)cc3)C1)C2` and write its reported pEC50.
6.00 to 6.70

Identify measured pEC50 corresponding to `Cc1cc(=O)n(C)c2c1CN(C(=O)CC1CN(c3cc(F)cc(F)c3)C1)C2`
6.00 to 6.70

Annotate the compound `Cc1cc(=O)n(C)c2c1CN(C(=O)CC1CN(c3ccncn3)C1)C2` with its measured pEC50.
6.00 to 6.70

// fetch pEC50 given entry `COc1cc(N2CC(CC(=O)N3Cc4c(C(F)(F)F)cc(=O)n(C)c4C3)C2)ccn1`
< 6.00

Please indicate pEC50 recorded for `Cc1cc(=O)n(C)c2c1CN(C(=O)CC1CN(c3ccc(F)cc3)C1)C2`
6.00 to 6.70

// Input: `COc1cncc(N2CC(CC(=O)N3Cc4c(C)c(Cl)c(=O)n(C)c4C3)C2)c1` . Output its pEC50 only.
< 6.00

---

# EC50 annotations
# TGT: hM4 receptors (Homo sapiens)
# Sequence (P08173 1-479): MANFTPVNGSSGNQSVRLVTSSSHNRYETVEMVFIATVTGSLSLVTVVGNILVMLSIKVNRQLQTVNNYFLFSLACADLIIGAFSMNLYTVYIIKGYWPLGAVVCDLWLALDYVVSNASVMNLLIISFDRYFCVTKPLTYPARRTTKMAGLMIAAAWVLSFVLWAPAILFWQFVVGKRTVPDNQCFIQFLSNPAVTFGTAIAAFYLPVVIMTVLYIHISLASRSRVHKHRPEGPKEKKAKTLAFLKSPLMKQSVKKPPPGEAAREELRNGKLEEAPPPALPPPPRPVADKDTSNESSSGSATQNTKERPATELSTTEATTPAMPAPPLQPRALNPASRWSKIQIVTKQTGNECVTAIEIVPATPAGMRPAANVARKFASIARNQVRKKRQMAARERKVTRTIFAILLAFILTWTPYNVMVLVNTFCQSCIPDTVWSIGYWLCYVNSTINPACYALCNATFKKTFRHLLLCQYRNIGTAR
# PROCEDURE TEXT: Human M4 PAM PERK assay (CHO cells, TR-FRET, with EC20 acetylcholine)

1) Cc1c2c(n(CC(F)(F)F)c(=O)c1Cl)CN(C(=O)CC1CN(c3cncnc3)C1)C2 :: 50 to 200 nM
2) Cc1cc(=O)n(C)c2c1C(C)N(C(=O)CC1CN(c3ccnc(C(F)(F)F)c3)C1)C2 (stereo not shown) [Compound I-114] :: < 50 nM
3) Cn1c2c(c(C(F)(F)F)cc1=O)CN(C(=O)CC1CN(c3cccnc3)C1)C2 :: 200 to 1000 nM

For hM4 receptors (Homo sapiens), give the measured EC50 of the entry `Cc1c2c(n(C)c(=O)c1C(F)(F)F)CN(C(=O)CC1CN(c3cccnc3)C1)C2`
50 to 200 nM

Report EC50 under test system hM4 receptors (Homo sapiens) for `Cc1cc(=O)n(C)c2c1CN(C(=O)CC1CN(c3cnn(C4CC4)c3)C1)C2` .
200 to 1000 nM

---

# TGT: hM4 receptors (Homo sapiens)
# Sequence (P08173 1-479): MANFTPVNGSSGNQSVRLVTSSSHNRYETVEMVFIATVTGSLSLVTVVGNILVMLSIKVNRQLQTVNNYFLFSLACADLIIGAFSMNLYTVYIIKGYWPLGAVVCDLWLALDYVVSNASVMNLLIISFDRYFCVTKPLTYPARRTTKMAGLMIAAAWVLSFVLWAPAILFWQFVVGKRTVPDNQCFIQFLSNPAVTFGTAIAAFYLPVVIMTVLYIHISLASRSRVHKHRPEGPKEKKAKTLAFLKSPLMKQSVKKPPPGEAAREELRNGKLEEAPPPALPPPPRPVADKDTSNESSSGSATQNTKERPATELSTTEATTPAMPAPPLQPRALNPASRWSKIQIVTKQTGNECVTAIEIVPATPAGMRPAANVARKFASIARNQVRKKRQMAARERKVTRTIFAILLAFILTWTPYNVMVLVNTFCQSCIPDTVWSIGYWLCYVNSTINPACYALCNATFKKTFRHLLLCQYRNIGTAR
# PROCEDURE TEXT: Human M4 PAM PERK assay (CHO cells, TR-FRET, with EC20 acetylcholine)
READOUT: EC50

1. Cc1c2c(n(C)c(=O)c1F)CN(C(=O)CC1CN(c3ccnc(C(F)(F)F)c3)C1)C2 :: < 0.05 µM

Input `Cc1c2c(n(C)c(=O)c1Cl)CN(C(=O)CC1CN(c3ccc(F)cc3)C1)C2` , output reported EC50.
< 0.05 µM

Answer with reported EC50 of `COc1cccc(N2CC(CC(=O)N3Cc4c(C)c(C)c(=O)n(C)c4C3)C2)c1`
0.05 to 0.2 µM

# credit: patent US20260209220A1
